Cited source: patent US20240239813A1

System: phosphorylation of p-ERK1/2 in NCI-H727
measurement.protocol: Cellular phospho-ERK inhibition, NCI-H727
Format: cell-based
conditions.used: Homo sapiens; NCI-H727, 4 hours
quantity.measured: IC50 (nM)
Could you give me the number in nM? Just the number is fine.

State, in one line, measured IC50 of CCc1c(F)ccc2cc(O)cc(-c3ncc4c(N5CCCC6(CCO6)C5)nc(OC[C@@]56CCCN5C[C@H](F)C6)nc4c3F)c12 (stereo partly shown)
110

###

study.system: His-tagged Human KRAS^G12D (Homo sapiens (Human), UniProt P01116, G12D)
Sequence (P01116-2 other isoform, or with tags, fused parts or gaps G12D): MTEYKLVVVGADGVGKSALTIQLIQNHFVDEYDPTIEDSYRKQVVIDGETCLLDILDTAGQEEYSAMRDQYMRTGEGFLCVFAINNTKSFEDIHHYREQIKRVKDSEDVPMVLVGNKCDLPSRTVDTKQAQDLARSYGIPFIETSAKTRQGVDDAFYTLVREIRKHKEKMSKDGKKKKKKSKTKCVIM
measurement.protocol: HTRF KRAS G12D GTP binding assay
conditions.used: displacement of GTP-Red tracer
pIC50: −log10 of the molar value.
quantity.measured: pIC50

# count of solved cases: 3
* CCc1c(F)ccc2cc(O)cc(-c3ncc4c(N5CCC[C@]6(CCO6)C5)nc(OCC5(CN6CCC(C(=O)O)CC6)CC5)nc4c3F)c12 [Compound 33a] | 7.99
* CCc1c(F)ccc2cc(O)cc(-c3ncc4c(N5CCCC6(CCO6)C5)nc(OC[C@H](C)OC)nc4c3F)c12 (stereo partly drawn) [Compound 11a] | < 6.00
* CCc1c(F)ccc2cc(O)cc(-c3ncc4c(N5C[C@H](O)C[C@H]5C(=O)OC)nc(OC[C@@]56CCCN5C[C@H](F)C6)nc4c3F)c12 | < 6.00

State, in one line, measured pIC50 of `CCc1c(F)ccc2cc(O)cc(-c3ncc4c(N5CCC[C@H]5C(C)(C)O)nc(OC[C@@]56CCCN5C[C@H](F)C6)nc4c3F)c12`
< 6.00

State, in one line, measured pIC50 of `CCc1c(F)ccc2cc(O)cc(-c3ncc4c(N5CC6CCC(C5)O6)nc(OC[C@@]56CCCN5C[C@H](F)C6)nc4c3F)c12`
6.01

State, in one line, measured pIC50 of `CCc1c(F)ccc2cc(O)cc(-c3ncc4c(N5CCCC56COC6)nc(OC[C@@]56CCCN5C[C@H](F)C6)nc4c3F)c12`
< 6.00

State, in one line, measured pIC50 of CCc1c(F)ccc2cc(O)cc(-c3ncc4c(N5CCCC(Cl)(CCO)C5)nc(OC[C@@]56CCCN5C[C@H](F)C6)nc4c3F)c12 (stereo partly drawn)
5.81

###

study.system: His-tagged Human KRAS^G12D (Homo sapiens (Human), UniProt P01116, G12D)
measurement.protocol: HTRF KRAS G12D GTP binding assay
conditions.used: displacement of GTP-Red tracer
quantity.measured: pIC50
// field semantics: pIC50 = negative decimal log of concentration (mol/L)

# count of solved cases: 3
- CCc1c(F)ccc2cc(O)cc(-c3ncc4c(N5CCC[C@H]5C(N)=O)nc(OC[C@@]56CCCN5C[C@H](F)C6)nc4c3F)c12: 5.86
- CCc1c(F)ccc2cc(O)cc(-c3ncc4c(N5CCCC6(C5)OCCO6)nc(OC[C@@]56CCCN5C[C@H](F)C6)nc4c3F)c12: 6.43
- CCc1c(F)ccc2cc(O)cc(-c3ncc4c(N5CC[C@@H](O)C5)nc(OC[C@@]56CCCN5C[C@H](F)C6)nc4c3F)c12: 6.58

State, in one line, measured pIC50 of CCc1c(F)ccc2cc(O)cc(-c3ncc4c(N5CCC[C@]6(CCO6)C5)nc(OCC5(CN6CCC6)CC5)nc4c3F)c12 [Compound 13a]
7.88

###

study.system: His-tagged Human KRAS^G12D (Homo sapiens (Human), UniProt P01116, G12D)
measurement.protocol: HTRF KRAS G12D GTP binding assay
conditions.used: displacement of GTP-Red tracer
A collection of compounds and their measured pIC50
// field semantics: pIC50 = negative decimal log of concentration (mol/L)

* CCc1c(F)ccc2cc(O)cc(-c3ncc4c(N5CCCC6(CCO6)C5)nc(OCC5(CN6CCOCC6)CC5)nc4c3F)c12 (stereo not drawn) | 7.73

Return reported pIC50 for target or system His-tagged Human KRAS^G12D (Homo sapiens (Human), UniProt P01116, G12D), item `CCc1c(F)ccc2cc(O)cc(-c3ncc4c(N5CCC[C@@H](OC)C5)nc(OC[C@@]56CCCN5C[C@H](F)C6)nc4c3F)c12` .
6.19

Return reported pIC50 for target or system His-tagged Human KRAS^G12D (Homo sapiens (Human), UniProt P01116, G12D), item CCc1c(F)ccc2cc(O)cc(-c3ncc4c(N5CCC[C@]6(CCO6)C5)nc(OCC5(CN6CCC7(CC6)CC(N6CCOCC6)C7)CC5)nc4c3F)c12 [Compound 20a] .
8.33

Return reported pIC50 for target or system His-tagged Human KRAS^G12D (Homo sapiens (Human), UniProt P01116, G12D), item CCc1c(F)ccc2cc(O)cc(-c3ncc4c(N5CCCCCC5)nc(OCC5(CN(C)C)CC5)nc4c3F)c12 [Compound 43a] .
6.25

Return reported pIC50 for target or system His-tagged Human KRAS^G12D (Homo sapiens (Human), UniProt P01116, G12D), item CCc1c(F)ccc2cc(O)cc(-c3c(F)cc4c(N5CCCC6(CCO6)C5)nc(OC[C@@]56CCCN5C[C@H](F)C6)nc4c3F)c12 (stereo partly drawn) .
6.89

Return reported pIC50 for target or system His-tagged Human KRAS^G12D (Homo sapiens (Human), UniProt P01116, G12D), item CCc1c(F)ccc2cc(O)cc(-c3ncc4c(N5CCCCC(O)C5)nc(OCC5(CN(C)C)CC5)nc4c3F)c12 (stereo not drawn) [Compound 46a] .
6.17

Return reported pIC50 for target or system His-tagged Human KRAS^G12D (Homo sapiens (Human), UniProt P01116, G12D), item `CCc1c(F)ccc2cc(O)cc(-c3ncc4c(N5CCCC[C@@H](N)C5)nc(OC[C@@]56CCCN5C[C@H](F)C6)nc4c3F)c12` .
6.79

###

study.system: His-tagged Human KRAS^G12D (Homo sapiens (Human), UniProt P01116, G12D)
measurement.protocol: HTRF KRAS G12D GTP binding assay
conditions.used: displacement of GTP-Red tracer
quantity.measured: log10 IC50 (log10 of the value in µM)
Base-10 log of IC50, unit µM.

• CCc1c(F)ccc2cc(O)cc(-c3ncc4c(N5CCC[C@H]5CN)nc(OC[C@@]56CCCN5C[C@H](F)C6)nc4c3F)c12 = 0.13
• CCc1c(F)ccc2cc(O)cc(-c3ncc4c(N5CCCC6(CCO6)C5)nc(OCC5(CN(C)C)CC5)nc4c3F)c12 (stereo not shown) = -1.97
• CCc1c(F)ccc2cc(O)cc(-c3ncc4c(N5CCC[C@]6(CCO6)C5)nc(OCC5(CN(CC)CC)CC5)nc4c3F)c12 [Compound 27a] = -1.90

State, in one line, measured log10 IC50 of CCc1c(F)ccc2cc(O)cc(-c3ncc4c(N5CCC[C@]6(CCO6)C5)nc(OCC5(CN6CCC7(CC6)CC(N6CCCCC6)C7)CC5)nc4c3F)c12 [Compound 21a]
-2.17

State, in one line, measured log10 IC50 of CCc1c(F)ccc2cc(O)cc(-c3ncc4c(N5CCC[C@]6(CCO6)C5)nc(OCC5(CN6CCC(F)CC6)CC5)nc4c3F)c12 [Compound 29a]
-2.37

State, in one line, measured log10 IC50 of `CCc1c(F)ccc2cc(O)cc(-c3ncc4c(N5CCCC6(COC6)C5)nc(OC[C@@]56CCCN5C[C@H](F)C6)nc4c3F)c12`
-1.15

State, in one line, measured log10 IC50 of CCc1c(F)ccc2cc(O)cc(-c3ccc4c(N5CCCC6(CCO6)C5)nc(OC[C@@]56CCCN5C[C@H](F)C6)nc4c3F)c12 (stereo partly shown)
-1.17

###

study.system: His-tagged Human KRAS^G12D (Homo sapiens (Human), UniProt P01116, G12D)
measurement.protocol: HTRF KRAS G12D GTP binding assay
conditions.used: displacement of GTP-Red tracer
A collection of molecules and their measured IC50
Could you give me the number in µM? Just the number is fine.

# count of solved cases: 5
* CCc1c(F)ccc2cc(O)cc(-c3ncc4c(N5CCC[C@]6(CCO6)C5)nc(OCC5(CN6CCN(C)CC6)CC5)nc4c3F)c12 [Compound 12a] | 0.0121
* CCc1c(F)ccc2cc(O)cc(-c3ncc4c(N5CCC[C@]6(CCO6)C5)nc(OCC5(CN(C)CC6COC6)CC5)nc4c3F)c12 [Compound 49a] | 0.00405
* CCc1c(F)ccc2cc(O)cc(-c3ncc4c(N5CCC[C@]6(CCO6)C5)nc(OCC5(CN6CCC7(CC6)CC(N6CCC(c8ccc9cnn(C)c9c8)CC6)C7)CC5)nc4c3F)c12 [Compound 19a] | 0.0161
* CCc1c(F)ccc2cc(O)cc(-c3ncc4c(N5CCC[C@]6(CCO6)C5)nc(OCC5(CN(C)C)CC5)nc4c3F)c12 [Compound 34a] | 0.0031
* CCc1c(F)ccc2cc(O)cc(-c3ncc4c(N5[C@H](CO)C[C@H]6C[C@H]65)nc(OC[C@@]56CCCN5C[C@H](F)C6)nc4c3F)c12 | 0.51

Moving on to the next molecule.
Return reported IC50 for target or system His-tagged Human KRAS^G12D (Homo sapiens (Human), UniProt P01116, G12D), item CCc1c(F)ccc2cc(O)cc(-c3ncc4c(N5CCCC6(CCO6)C5)nc(OC[C@@H]5C[C@@H](F)CN5C)nc4c3F)c12 (stereo partly drawn) .
0.141
